Numbers sourced from paper PMC12416549.

# system_name: T1, TNFR1 (Homo sapiens, UniProt P19438)
# T1 chain: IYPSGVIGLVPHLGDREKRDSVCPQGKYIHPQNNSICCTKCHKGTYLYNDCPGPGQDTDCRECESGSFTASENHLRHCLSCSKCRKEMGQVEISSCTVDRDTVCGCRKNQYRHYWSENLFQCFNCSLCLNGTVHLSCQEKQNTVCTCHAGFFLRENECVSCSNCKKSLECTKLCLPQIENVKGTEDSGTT
# experiment_summary: yeast display SC50
experimental_endpoint: apparent Kd (screen) (nM)
Write the value in nM as a bare number.

Request: Give a short answer stating reported apparent Kd (screen) for A42W (designed binder) MTLQELLREEALRRAEAEAFRYALELLAEKFPEQKEYLLDLWEEIESQIRSLSGVDVEDVRKFLDKEWAWVKELLAEHPAELAEVEAARAARLAELRAEVEAKVAA .
Response: 4.83

Request: Give a short answer stating reported apparent Kd (screen) for V57Y (designed binder) MTLQELLREEALRRAEAEAFRYALELLAEKFPEQKEYLLDLAEEIESQIRSLSGVDYEDVRKFLDKEWAWVKELLAEHPAELAEVEAARAARLAELRAEVEAKVAA .
Response: 0.49

Request: Give a short answer stating reported apparent Kd (screen) for E33Y (designed binder) MTLQELLREEALRRAEAEAFRYALELLAEKFPYQKEYLLDLAEEIESQIRSLSGVDVEDVRKFLDKEWAWVKELLAEHPAELAEVEAARAARLAELRAEVEAKVAA .
Response: 0.539

Request: Give a short answer stating reported apparent Kd (screen) for L52V (designed binder) MTLQELLREEALRRAEAEAFRYALELLAEKFPEQKEYLLDLAEEIESQIRSVSGVDVEDVRKFLDKEWAWVKELLAEHPAELAEVEAARAARLAELRAEVEAKVAA .
Response: 0.49

Request: Give a short answer stating reported apparent Kd (screen) for E10T (designed binder) MTLQELLRETALRRAEAEAFRYALELLAEKFPEQKEYLLDLAEEIESQIRSLSGVDVEDVRKFLDKEWAWVKELLAEHPAELAEVEAARAARLAELRAEVEAKVAA .
Response: 5.31

Request: Give a short answer stating reported apparent Kd (screen) for E16A (designed binder) MTLQELLREEALRRAAAEAFRYALELLAEKFPEQKEYLLDLAEEIESQIRSLSGVDVEDVRKFLDKEWAWVKELLAEHPAELAEVEAARAARLAELRAEVEAKVAA .
Response: 0.539

Request: Give a short answer stating reported apparent Kd (screen) for Q4A (designed binder) MTLAELLREEALRRAEAEAFRYALELLAEKFPEQKEYLLDLAEEIESQIRSLSGVDVEDVRKFLDKEWAWVKELLAEHPAELAEVEAARAARLAELRAEVEAKVAA .
Response: 0.718

Request: Give a short answer stating reported apparent Kd (screen) for A23G (designed binder) MTLQELLREEALRRAEAEAFRYGLELLAEKFPEQKEYLLDLAEEIESQIRSLSGVDVEDVRKFLDKEWAWVKELLAEHPAELAEVEAARAARLAELRAEVEAKVAA .
Response: 0.49
